// endpoint pIC50 / system Cholinesterase (Homo sapiens, UniProt P06276)
Answers are plain numbers, as −log10 of the molar value.

Consider the reported pIC50 for these molecules:
# Smi, Measurement type, Assay result
rows = [
    ("CCS(=O)(=O)NNC(=O)c1cc(C(=O)NNS(=O)(=O)CC)nc(C(=O)NNS(=O)(=O)CC)c1", "pIC50", 3.95),
    ("CS(=O)(=O)NNC(=O)c1cc(C(=O)NNS(C)(=O)=O)nc(C(=O)NNS(C)(=O)=O)c1", "pIC50", 4.35),
]

Now look at this one.
Input: # returns recorded pIC50 (system: Cholinesterase (Homo sapiens, UniProt P06276)) for O=C(NNS(=O)(=O)c1ccccc1)c1cc(C(=O)NNS(=O)(=O)c2ccccc2)nc(C(=O)NNS(=O)(=O)c2ccccc2)c1
Sequence (P06276 whole entry): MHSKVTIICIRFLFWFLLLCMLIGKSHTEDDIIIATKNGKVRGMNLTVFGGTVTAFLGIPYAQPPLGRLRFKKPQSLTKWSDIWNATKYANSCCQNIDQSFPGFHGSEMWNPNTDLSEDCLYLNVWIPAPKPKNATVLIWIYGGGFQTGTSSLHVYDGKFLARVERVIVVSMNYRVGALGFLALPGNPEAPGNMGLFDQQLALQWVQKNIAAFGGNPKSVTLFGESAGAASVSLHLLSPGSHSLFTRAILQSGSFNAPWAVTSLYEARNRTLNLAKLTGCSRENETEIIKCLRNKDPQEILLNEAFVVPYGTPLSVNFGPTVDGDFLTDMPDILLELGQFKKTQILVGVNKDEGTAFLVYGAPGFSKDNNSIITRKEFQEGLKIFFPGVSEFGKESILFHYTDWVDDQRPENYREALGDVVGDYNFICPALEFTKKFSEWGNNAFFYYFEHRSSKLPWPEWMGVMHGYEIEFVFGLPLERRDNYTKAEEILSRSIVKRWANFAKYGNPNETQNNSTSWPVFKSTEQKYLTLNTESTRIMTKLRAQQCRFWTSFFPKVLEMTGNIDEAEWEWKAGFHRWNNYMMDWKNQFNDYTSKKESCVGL
Output: 4.36

====

Molecular target: Alpha-glucosidase MAL12 (Saccharomyces cerevisiae (strain ATCC 204508 / S288c), UniProt P53341)
Sequence (P53341 whole entry): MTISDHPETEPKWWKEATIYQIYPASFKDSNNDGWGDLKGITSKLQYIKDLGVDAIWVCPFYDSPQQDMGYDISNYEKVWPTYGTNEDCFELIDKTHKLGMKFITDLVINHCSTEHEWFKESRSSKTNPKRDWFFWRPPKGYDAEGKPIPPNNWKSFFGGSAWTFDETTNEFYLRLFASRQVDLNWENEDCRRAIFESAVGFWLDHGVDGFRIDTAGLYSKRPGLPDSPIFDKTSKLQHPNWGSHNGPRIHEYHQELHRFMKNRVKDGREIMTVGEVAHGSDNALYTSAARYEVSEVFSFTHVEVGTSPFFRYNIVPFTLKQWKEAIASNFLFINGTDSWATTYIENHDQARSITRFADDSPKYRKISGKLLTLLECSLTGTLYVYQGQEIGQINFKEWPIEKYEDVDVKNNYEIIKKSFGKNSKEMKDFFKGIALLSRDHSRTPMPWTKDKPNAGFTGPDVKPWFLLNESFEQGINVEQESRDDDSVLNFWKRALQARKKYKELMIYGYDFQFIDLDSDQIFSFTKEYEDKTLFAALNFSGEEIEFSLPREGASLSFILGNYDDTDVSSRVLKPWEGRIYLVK
Assay: α-Glucosidase Assay
Conditions: pH 6.8
Measurement type: IC50 (µM)
One number for each entry, in µM.

# Smi, IC50, µM
records = [
    ("O=C(NNS(=O)(=O)c1ccc(Br)cc1)c1cc(C(=O)NNS(=O)(=O)c2ccc(Br)cc2)nc(C(=O)NNS(=O)(=O)c2ccc(Br)cc2)c1", 26.8),
    ("O=C(NNS(=O)(=O)c1ccccc1)c1cc(C(=O)NNS(=O)(=O)c2ccccc2)nc(C(=O)NNS(=O)(=O)c2ccccc2)c1", 32.2),
    ("O=C(NNS(=O)(=O)c1ccc(F)cc1)c1cc(C(=O)NNS(=O)(=O)c2ccc(F)cc2)nc(C(=O)NNS(=O)(=O)c2ccc(F)cc2)c1", 25.6),
]

State the recorded IC50 for every item in the following list.
1. O=C(NNS(=O)(=O)c1ccc(Cl)cc1)c1cc(C(=O)NNS(=O)(=O)c2ccc(Cl)cc2)nc(C(=O)NNS(=O)(=O)c2ccc(Cl)cc2)c1
2. Cc1ccc(S(=O)(=O)NNC(=O)c2cc(C(=O)NNS(=O)(=O)c3ccc(C)cc3)nc(C(=O)NNS(=O)(=O)c3ccc(C)cc3)c2)cc1

Output:
[28.8, 125]
